These measurements were taken from PubChem BioAssay AID2060906.

# IC50 values compiled below
test system: 485176-168-R4-J1-PDC complex spheroid growth; experiment: Anticancer human tumor 485176-168-R4-J1-PDC patient-derived pancreatic adenocarcinoma cell line growth inhibition [RAS]; conditions: curve of first compound; second compound 3.16 µM
quantityKind: IC50

{"columns": ["compound", "assaySystem", "quantityKind", "assayValue"],
 "data": [
  ["CC1(C)CCC(Nc2ncc(C(F)(F)F)c(-c3c[nH]c4c(P(C)(C)=O)c(C#N)ccc34)n2)CN1 (stereo unspecified) + C#Cc1c(F)ccc2cc(O)cc(-c3ncc4c(N5CC6CCC(C5)N6)nc(OCC56CCCN5CC(F)C6)nc4c3F)c12", "485176-168-R4-J1-PDC complex spheroid growth", "IC50", "> 300 nM"],
  ["O=C(c1ccc(F)c(F)c1Nc1ccc(I)cc1F)N1CC(O)([C@@H]2CCCCN2)C1 + C#Cc1c(F)ccc2cc(O)cc(-c3ncc4c(N5CC6CCC(C5)N6)nc(OCC56CCCN5CC(F)C6)nc4c3F)c12", "485176-168-R4-J1-PDC complex spheroid growth", "IC50", "88.8 nM"],
  ["CC1(O)CCCC1n1c(=O)c(C(F)F)cc2cnc(NC3CCN(S(C)(=O)=O)CC3)nc21 (stereo unspecified) + C#Cc1c(F)ccc2cc(O)cc(-c3ncc4c(N5CC6CCC(C5)N6)nc(OCC56CCCN5CC(F)C6)nc4c3F)c12", "485176-168-R4-J1-PDC complex spheroid growth", "IC50", "2210 nM"],
  ["C=CC(=O)Nc1cc(Nc2nccc(-c3cn(C)c4ccccc34)n2)c(OC)cc1N(C)CCN(C)C + C#Cc1c(F)ccc2cc(O)cc(-c3ncc4c(N5CC6CCC(C5)N6)nc(OCC56CCCN5CC(F)C6)nc4c3F)c12", "485176-168-R4-J1-PDC complex spheroid growth", "IC50", "> 1000 nM"],
  ["C=CC(=O)N1CCN(c2nc(OCC3CCCN3C)nc3c(F)c(-c4nc(N)cc(C)c4C(F)(F)F)c(Cl)cc23)C(C)C1 (stereo unspecified) + C#Cc1c(F)ccc2cc(O)cc(-c3ncc4c(N5CC6CCC(C5)N6)nc(OCC56CCCN5CC(F)C6)nc4c3F)c12", "485176-168-R4-J1-PDC complex spheroid growth", "IC50", "> 1000 nM"],
  ["NC1c2ccccc2OC12CCN(c1cnc3c(N4CCCc5ncccc54)n[nH]c3n1)CC2 (stereo unspecified) + C#Cc1c(F)ccc2cc(O)cc(-c3ncc4c(N5CC6CCC(C5)N6)nc(OCC56CCCN5CC(F)C6)nc4c3F)c12", "485176-168-R4-J1-PDC complex spheroid growth", "IC50", "> 10000 nM"]
]}

###

Test system: 485176-168-R4-J1-PDC complex spheroid growth
Experiment: Anticancer human tumor 485176-168-R4-J1-PDC cell line growth inhibition [RAS]; active = viability on the fitted dose curve at most 10% of control; inactive = the rest;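 also: spheroids exposed to compounds for seven days before readout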
Details: second compound 0.00316 µM; first compound 3.16 µM
Description: RAS pathway inhibitors in Combinations in Complex Spheroids A high-throughput screen of multi-cell type tumor spheroids was designed to identify active combinations of RAS pathway inhibitors and targeted small molecules. Complex spheroids include a stromal component modeled by human endothelial cells (HUVEC) and fibroblasts modeled by human mesenchymal stem cells (MSCs). […] Compounds. […] If the clinical Cmax for an agent had not been determined, the highest concentration tested was 10 microM. […]
Outcomes: active, inactive

{"columns": ["compound", "assaySystem", "className"],
 "data": [
  ["Cc1nc(N2CCC3(CC2)COC(C)C3N)c(CO)nc1Sc1ccnc(N)c1Cl (centres undefined) + C=CC(=O)N1CCN(c2nc(OCC3CCCN3C)nc3c(F)c(-c4nc(N)cc(C)c4C(F)(F)F)c(Cl)cc23)C(C)C1", "485176-168-R4-J1-PDC complex spheroid growth", "inactive"],
  ["CC1(O)CCCC1n1c(=O)c(C(F)F)cc2cnc(NC3CCN(S(C)(=O)=O)CC3)nc21 (centres undefined) + C=CC(=O)N1CCN(c2nc(OCC3CCCN3C)nc3c(F)c(-c4nc(N)cc(C)c4C(F)(F)F)c(Cl)cc23)C(C)C1", "485176-168-R4-J1-PDC complex spheroid growth", "inactive"],
  ["CC(C)NCC(C(=O)N1CCN(c2ncnc3c2C(C)CC3O)CC1)c1ccc(Cl)cc1 (centres undefined) + C=CC(=O)N1CCN(c2nc(OCC3CCCN3C)nc3c(F)c(-c4nc(N)cc(C)c4C(F)(F)F)c(Cl)cc23)C(C)C1", "485176-168-R4-J1-PDC complex spheroid growth", "inactive"],
  ["CCC(CC)c1cc(NC2CCC(N)C2)n2nccc2n1 (centres undefined) + C=CC(=O)N1CCN(c2nc(OCC3CCCN3C)nc3c(F)c(-c4nc(N)cc(C)c4C(F)(F)F)c(Cl)cc23)C(C)C1", "485176-168-R4-J1-PDC complex spheroid growth", "active"]
]}
